- Test system: INS-1E rat beta cells, no cytokines, CellTiter-Glo ATP, 48 h
- protocol text: cytokine-free beta-cell viability effect – INS-1E rat cells, ATP luminescence, cherry pick, counter-screen for beta-cell apoptosis protection project, dose response (AID 463229)
Listed compounds paired with reported AC50

O=C(c1cc2sccc2n1Cc1ccc(F)cc1)N1CCN(c2nc3ccccc3s2)CC1    5.82 µM
O=C(NCCOCCOCCNC(=O)c1cccnc1)c1cccnc1    3.83 µM
COc1ccc(Cl)c(Cn2c(NCc3ccco3)nc3c2c(=O)n(C)c(=O)n3C)c1    13.1 µM
O=C(Nc1nc(-c2ccccn2)cs1)Nc1ccc(F)cc1F    10.2 µM
Cc1cc(C)n(CCC(=O)N/N=C/c2c(O)ccc3ccccc23)n1    9.78 µM
COc1cc(/C=N/NC(=O)c2cccnc2)ccc1OC(=O)c1cc(OC)c(OC)c(OC)c1    2.51 µM
CC1=CC2/C=C(\C)CCC(O)C(O)/C=C/C(=O)C23C(=O)NC(CC(C)C)C3C1C (stereo unspecified)    7.48 µM
CCCCC(=O)NC(c1ccccc1OC)c1ccc2cccnc2c1O (stereo unspecified)    2.13 µM

Reading of AC50 for CC(C)C[C@H](NC(=O)c1nc[nH]c1C(=O)N[C@@H](CC(C)C)C(=O)OC(C)(C)C)C(=O)OCc1ccccc1 with INS-1E rat beta cells, no cytokines, CellTiter-Glo ATP, 48 h: 14.6 µM

AC50 on INS-1E rat beta cells, no cytokines, CellTiter-Glo ATP, 48 h for Cn1nccc1C(=O)N/N=C/c1c(O)ccc2ccccc12 is 3.54 µM

Summary line: Oc1[nH]c(N=C2N=c3ccccc3=N2)c2ccccc12 , INS-1E rat beta cells, no cytokines, CellTiter-Glo ATP, 48 h, reported AC50 = 3.44 µM

Reading of AC50 for O=C(NCc1cccnc1)c1cc(-c2ccco2)on1 with INS-1E rat beta cells, no cytokines, CellTiter-Glo ATP, 48 h: 2.27 µM

# lookup: O=C(Nc1cccnc1)c1ccc([N+](=O)[O-])s1 on INS-1E rat beta cells, no cytokines, CellTiter-Glo ATP, 48 h, AC50 = 15.3 µM

# COCCN(C(=O)COC(=O)C1CCC(C(C)(C)C)CC1)c1c(N)n(Cc2ccccc2)c(=O)[nH]c1=O (stereo unspecified) with INS-1E rat beta cells, no cytokines, CellTiter-Glo ATP, 48 h: AC50 is 2.17 µM

Kindly note: INS-1E rat beta cells, no cytokines, CellTiter-Glo ATP, 48 h, Cc1ccc2c(c1)S/C(=C/c1ccc[n+](CCO)c1)N2C , AC50 value reported: 3 µM

GET /values?item= CCCOc1ccc(CSc2nc3ccccc3[nH]2)cc1 &system= INS-1E rat beta cells, no cytokines, CellTiter-Glo ATP, 48 h returns AC50: 5.41 µM
